# experiment: Toxicity against Madracis mirabilis polyps assessed as mortality after 2 hrs
# Assay type: organism-based
# settings: in vivo; read-out: LD50
assay_metric: LC50 at 2 h

                                   compound        val
0  C=C(C)[C@H]1CC[C@@]2(C)CCC[C@@](C)(N)[C@@H]2C1.Cl (relative stereo)  9.4 µg/mL
